# method: Clearance in C57B6 mouse at 1 mg/kg, iv
# Type: ADME, organism-based
# test.context: in vivo
readout.type: clearance (mL/min/kg)
Entry rule: numbers only, all in mL/min/kg.

Prompt line: If you can, please state the reported clearance value of O=C(O)c1cc(C(F)(F)F)c2cc(N3CCC4(C=C(c5c(-c6c(Cl)cncc6Cl)noc5C5CC5)C4)CC3)ccc2n1 .
Response line: 3.8

----------
# method: AUC in C57B6 mouse at 2 mg/kg, po administered as solution
# Format: ADME, organism-based
# Design: dose 2 mg/kg
# test.context: in vivo
readout.type: AUC (µM·h)
Entry rule: numbers only, all in µM·h.

Prompt line: If you can, please state the reported AUC value of O=C(O)c1cc(C(F)(F)F)c2cc(N3CCC4(C=C(c5c(-c6c(Cl)cncc6Cl)noc5C5CC5)C4)CC3)ccc2n1 .
Response line: 6.65

----------
As shown below, each of these molecules has a reported half-life value.
# method: Metabolic stability in human liver microsomes assessed as half life
# Assay type: ADME, Microsome

Prompt line: If you can, please state the reported half-life value of O=C(O)c1ccc(N2CCC3(C=C(c4c(-c5c(Cl)cccc5Cl)noc4C4CC4)C3)CC2)cn1 .
Response line: 75 min

Prompt line: If you can, please state the reported half-life value of O=C(O)c1cc(F)c2nc(N3C4CCC3CC(/C=C/c3c(-c5c(Cl)cccc5Cl)noc3C3CC3)C4)sc2c1 (stereo not given) .
Response line: 13 min

Prompt line: If you can, please state the reported half-life value of O=C(O)c1cc(F)c2nc(N3CCC(/C=C/c4c(-c5c(Cl)cccc5Cl)noc4C4CC4)CC3)sc2c1 .
Response line: 13 min

Prompt line: If you can, please state the reported half-life value of O=C(O)c1cc(F)c2nc(N3CCC4(C=C(c5c(-c6c(Cl)cncc6Cl)noc5C5CC5)C4)CC3)sc2c1 .
Response line: 21 min

----------
# method: AUC in C57B6 mouse at 1 mg/kg, iv
# Format: ADME, organism-based
# Parameters: dose 1 mg/kg
# test.context: in vivo
readout.type: AUC (µM·h)
Entry rule: numbers only, all in µM·h.

Prompt line: If you can, please state the reported AUC value of O=C(O)c1cc(C(F)(F)F)c2cc(N3CCC4(C=C(c5c(-c6c(Cl)cncc6Cl)noc5C5CC5)C4)CC3)ccc2n1 .
Response line: 9.32

----------
# method: Metabolic stability in human liver microsomes assessed as half life
# Assay type: ADME, Microsome
Mark true (1) for half-life under 50 min, false (0) if at or over.

Would you please look over these solved cases?
molecule=O=C(O)c1cc(C(F)(F)F)c2cc(N3CCC4(C=C(c5c(-c6c(Cl)cncc6Cl)noc5C5CC5)C4)CC3)ccc2n1 category="false (0)"
molecule=O=C(O)c1ccc2cc(N3CCC4(C=C(c5c(-c6c(Cl)cccc6Cl)noc5C5CC5)C4)CC3)ccc2n1 category="false (0)"
molecule=O=C(O)c1cc(F)c2nc(N3CCC(CCc4c(-c5c(Cl)cccc5Cl)noc4C4CC4)CC3)sc2c1 category="true (1)"

Prompt line: Confirm or reject: half-life of O=C(O)c1cc(F)c2nc(N3CC4C(/C=C/c5c(-c6c(Cl)cccc6Cl)noc5C5CC5)C4C3)sc2c1 (stereo unspecified) lies strictly below 50 min
Response line: true (1)

Prompt line: Confirm or reject: half-life of O=C(O)c1cc(F)c2nc(N3CCC4(CC3)CC(c3c(-c5c(Cl)cccc5Cl)noc3C3CC3)C4)sc2c1 lies strictly below 50 min
Response line: false (0)

Origin of the recorded values: ChEMBL document CHEMBL4823324
